Catalogue of Plant response rating, Foxtail, Green values
# Test system: green foxtail (Setaria viridis)
# test name: Test B pre-/postemergence plant response
# Format: in vivo
# applied conditions: Preemergence, 62 g ai/ha; scale 0 to 100 (0 no effect, 100 complete control)
Please reply with the number alone, leaving off any unit.

Consider the reported Plant response rating, Foxtail, Green for these compounds:
compound: CCc1ccccc1-n1c(-c2ccccc2)ncc(C(=O)C2=C(O)CCCC2=O)c1=O [Compound 255]
assay system: green foxtail (Setaria viridis)
Plant response rating, Foxtail, Green: 80
//
compound: CCCCc1ncc(C(=O)C2=C(O)CCCC2=O)c(=O)n1-c1ccccc1 [Compound 42]
assay system: green foxtail (Setaria viridis)
Plant response rating, Foxtail, Green: 65
//
compound: CCCc1ncc(C(=O)C2=C(O)CCCC2=O)c(=O)n1CC1CCCO1 (stereo not shown) [Compound 74]
assay system: green foxtail (Setaria viridis)
Plant response rating, Foxtail, Green: 0
//
compound: O=C1CCCC(O)=C1C(=O)c1cnc(-c2ccccc2)n(-c2ccccc2F)c1=O [Compound 26]
assay system: green foxtail (Setaria viridis)
Plant response rating, Foxtail, Green: 0
//
compound: Cc1cccc(Cl)c1-n1c(-c2ccccc2)ncc(C(=O)C2=C(O)CCCC2=O)c1=O [Compound 46]
assay system: green foxtail (Setaria viridis)
Plant response rating, Foxtail, Green: 0
//
compound: Cc1c(Cl)cccc1-n1c(-c2ccccc2)ncc(C(=O)C2=C(O)CCCC2=O)c1=O [Compound 40]
assay system: green foxtail (Setaria viridis)
Plant response rating, Foxtail, Green: 85

### Prompt // Plant response rating, Foxtail, Green lookup, key: Cc1ccc(F)cc1-n1c(-c2ccccc2)ncc(C(=O)C2=C(O)CCCC2=O)c1=O [Compound 44]
### Response 98
